# System: PC-3
# protocolText: NCI tumour cell line growth inhibition, 48 h
Active and inactive are the calls of the source. Cut-off read from the data, not from the text of the source: active = GI50 up to about 1.1 µM and inactive = higher.
Listed next: entries and their corresponding GI50.
observable: GI50

[[record]]
compound = "COc1ccc(OC)c2sc(N3C(=O)/C(=C/Cc4ccco4)N=C3c3ccccc3)nc12"
result = "24.5 µM (inactive)"

[[record]]
compound = "O=C(O)C1CSC2(CCCN(Cc3ccccc3)C2)N1 (stereo not drawn)"
result = "> 100 µM (inactive)"

[[record]]
compound = "O=C(/C=C(\\Nc1ccccc1O)c1ccc(Br)cc1)C(Cl)(Cl)Cl"
result = "2.47 µM (inactive)"


====

# Tested on: KM-20L2
# protocolText: NCI tumour cell line growth inhibition, 48 h
The source made the active and inactive calls. Cut-off read from the data, not from the text of the source: active = GI50 up to about 1.1 µM and inactive = higher.
Classes used: 1.0 = active, 0.0 = inactive

[[record]]
compound = "COc1cccc2c1C(=O)c1c(O)c3c(c(O)c1C2=O)C[C@@](O)(C(=O)CO)CC3OC1CC(NCCCC(OC(C)=O)OC(C)=O)C(O)C(C)O1 (some centres undefined)"
classname = 1.0

[[record]]
compound = "COc1ccc(Sc2ccccc2[N+](=O)[O-])cc1"
classname = 0.0

[[record]]
compound = "C[n+]1c2n(c3nc(N)[nH]c(=O)c31)C1OC(C2)C(O)C1O (centres undefined)"
classname = 0.0

[[record]]
compound = "COc1ccc(/C=C\\c2cc(OC)c(OC)c(OC)c2)c(O)c1O"
classname = 0.0

[[record]]
compound = "CC(C)(C)C(=O)OCC1CCC(n2cnc3c(=O)[nH]c(N)nc32)O1 (centres undefined)"
classname = 0.0

[[record]]
compound = "Cc1cccc(C)c1NC(=O)/C(Cl)=C(/Cl)C(=O)O"
classname = 0.0

[[record]]
compound = "CCCCN(CCCC)CC(C(=O)Nc1ccc([N+](=O)[O-])cc1[N+](=O)[O-])/C(C)=N\\NC(=O)c1ccncc1 (centres undefined)"
classname = 0.0

[[record]]
compound = "C=C1C(=O)OC2CC3(C)C=CC(=O)C(=C)C3CC12 (centres undefined)"
classname = 0.0

[[record]]
compound = "COc1ccccc1NC(=O)CC(=O)N/N=C/c1ccc(N(CCC#N)S(=O)(=O)c2ccccc2)cc1"
classname = 0.0

[[record]]
compound = "COC(=O)/C=C(C)/C=C/c1c(C)c(C(C)=O)c(C)n1C"
classname = 0.0

[[record]]
compound = "COC(=O)C12C3C4C1C1C2C3C41C(=O)N(C(C)C)C(C)C (centres undefined)"
classname = 0.0

[[record]]
compound = "Cc1ccc(C(c2c(O)c3ccccc3n(-c3ccccc3)c2=O)c2c(O)c3ccccc3n(-c3ccccc3)c2=O)cc1"
classname = 0.0

[[record]]
compound = "COc1ccc(-c2c(N)[n+]([O-])c3ccccc3[n+]2[O-])cc1OC"
classname = 0.0

[[record]]
compound = "COC(=O)C(=O)C(C(=O)C(=O)Nc1ccc([N+](=O)[O-])cc1[N+](=O)[O-])c1nc2ccc([N+](=O)[O-])cc2nc1O (centres undefined)"
classname = 0.0


====

# System: NCI-H23
# protocolText: NCI tumour cell line growth inhibition, 48 h
Active and inactive are the calls of the source. Rule as the data show it: active = GI50 up to about 1.1 µM and inactive = higher.
Classes used: label 1 = active, label 0 = inactive

[[record]]
molecule = "Cc1cccc(C(C)(C)C)c1NC(=O)C(C#N)C1=C(Cl)C(=O)c2ccccc2C1=O (centres undefined)"
systemundertest = "NCI-H23"
classname = "label 0"

[[record]]
molecule = "CCN(C)c1nc(N(C)CC)c2nc(N(C)CC)nc(N(C)CC)c2n1"
systemundertest = "NCI-H23"
classname = "label 0"

[[record]]
molecule = "COc1cc(C2c3cc4c(cc3OC(N3CCCC3)C2C)OCO4)cc(OC)c1O (centres undefined)"
systemundertest = "NCI-H23"
classname = "label 0"

[[record]]
molecule = "N#C[BH2-][n+]1cn(C2CC(OP(=O)(O)OCC3OC(n4ccc(N)nc4=O)CC3O)C(CO)O2)c2nc(N)[nH]c(=O)c21 (centres undefined)"
systemundertest = "NCI-H23"
classname = "label 0"

[[record]]
molecule = "CCC/C(Cl)=N/OC(=O)Nc1cc(C(F)(F)F)ccc1OC"
systemundertest = "NCI-H23"
classname = "label 0"

[[record]]
molecule = "COC(=O)C1=Cc2c(cc(OC)c(OC)c2OC)[C@H](c2ccc(OC)c(OC)c2OC)C1C(=O)OC (some centres undefined)"
systemundertest = "NCI-H23"
classname = "label 0"

[[record]]
molecule = "CCOC(=O)/C=C/CCO[Si](C)(C)C(C)(C)C"
systemundertest = "NCI-H23"
classname = "label 0"

[[record]]
molecule = "C=C1C=CC2(Br)OC3CC(C)(Cl)C(Br)CC13C2(C)C (centres undefined)"
systemundertest = "NCI-H23"
classname = "label 0"

[[record]]
molecule = "O=C1C=C[C@@]23C[C@@H](NC4=C2C2=NCCc5c[nH]c(c52)C4=O)SC3=C1"
systemundertest = "NCI-H23"
classname = "label 0"

[[record]]
molecule = "Cc1cn(C2CC(O)C(Cn3nncc3Cn3cnc4c(N)ncnc43)O2)c(=O)[nH]c1=O (centres undefined)"
systemundertest = "NCI-H23"
classname = "label 0"

[[record]]
molecule = "Cc1cc(SCC(=O)c2ccccc2)nc2ccccc12"
systemundertest = "NCI-H23"
classname = "label 0"

[[record]]
molecule = "C(=N/NC1=NCCN1)/c1c2ccccc2c(/C=N\\NC2=NCCN2)c2ccccc12"
systemundertest = "NCI-H23"
classname = "label 1"

[[record]]
molecule = "C#CCNC(=O)NCCCCC(NC(=O)OCc1ccccc1)C(=O)OCc1ccccc1 (centres undefined)"
systemundertest = "NCI-H23"
classname = "label 0"

[[record]]
molecule = "CC1OC(O[C@H]2C3C=CO[C@@H](OC4OC(CO)C(O)C(O)C4O)C3[C@@]3(COC(=O)/C=C/c4ccc(O)cc4)O[C@@H]23)C(O)C(O)C1O (some centres undefined)"
systemundertest = "NCI-H23"
classname = "label 0"

[[record]]
molecule = "COC(=O)C(=O)C(C(=O)C(=O)Nc1ccc([N+](=O)[O-])cc1[N+](=O)[O-])c1nc2ccc([N+](=O)[O-])cc2nc1O (centres undefined)"
systemundertest = "NCI-H23"
classname = "label 0"

[[record]]
molecule = "C/C(=N/NC(=S)Nc1ccccc1C)c1ccccn1"
systemundertest = "NCI-H23"
classname = "label 1"

[[record]]
molecule = "CCCCc1ccc(Nc2nc3ncnc-3c[nH]2)cc1"
systemundertest = "NCI-H23"
classname = "label 0"

[[record]]
molecule = "COC(=O)C1OC(SCCN)C(O)C(O)C1O (centres undefined)"
systemundertest = "NCI-H23"
classname = "label 0"

[[record]]
molecule = "Cc1cc2ncn(C3CCCO3)c2cc1C (centres undefined)"
systemundertest = "NCI-H23"
classname = "label 0"

[[record]]
molecule = "O=C(c1ccccc1)c1c(CC(O)c2ccncc2)n(C(=O)c2ccccc2)c2ccccc12 (centres undefined)"
systemundertest = "NCI-H23"
classname = "label 0"

[[record]]
molecule = "[N-]=[N+]=NI1OC(C(F)(F)F)(C(F)(F)F)c2ccccc21"
systemundertest = "NCI-H23"
classname = "label 0"

[[record]]
molecule = "O=Cc1cc2c(cc1-c1cc3c(cc1C=O)OCO3)OCO2"
systemundertest = "NCI-H23"
classname = "label 0"

[[record]]
molecule = "CC(C)=C/C=C1/CS(=O)(=O)C=C1C"
systemundertest = "NCI-H23"
classname = "label 0"

[[record]]
molecule = "O=C(c1ccccc1)C(c1ccccc1)C1(O)C(=O)Nc2ccc([N+](=O)[O-])cc21 (centres undefined)"
systemundertest = "NCI-H23"
classname = "label 0"

[[record]]
molecule = "C=C1CC(C)(COc2ccc3c(C)c(Cl)c(=O)oc3c2)OC1=O (centres undefined)"
systemundertest = "NCI-H23"
classname = "label 0"

[[record]]
molecule = "CCC12CC(c3ccccc3)C(C(=O)N1)C(=O)N2 (centres undefined)"
systemundertest = "NCI-H23"
classname = "label 0"

[[record]]
molecule = "Cc1ccc(S(=O)OC2C3CC4CC(C3)CC2C4)cc1 (centres undefined)"
systemundertest = "NCI-H23"
classname = "label 0"

[[record]]
molecule = "COc1cc(C(c2cc(OC)c(OC)c(OC)c2)N2C(=O)CCC2C(=O)O)cc(OC)c1OC (centres undefined)"
systemundertest = "NCI-H23"
classname = "label 0"

[[record]]
molecule = "CN(C(=O)c1ccco1)C(=S)N1CCN(c2ccccn2)CC1"
systemundertest = "NCI-H23"
classname = "label 0"

[[record]]
molecule = "NC(Cc1c[nH]c(I)n1)C(=O)O (centres undefined)"
systemundertest = "NCI-H23"
classname = "label 0"

[[record]]
molecule = "Oc1ccc(Cl)cc1-c1nc(S)nc(-c2ccccc2)c1Cl"
systemundertest = "NCI-H23"
classname = "label 0"

[[record]]
molecule = "Nc1ccn(CCNCCn2cnc3nc(N)[nH]c(=O)c32)c(=O)n1"
systemundertest = "NCI-H23"
classname = "label 0"

[[record]]
molecule = "N=C(NC(=N)Nc1ccc(S(=O)(=O)Nc2cnc3ccccc3n2)cc1)Nc1ccc(Br)cc1"
systemundertest = "NCI-H23"
classname = "label 0"

[[record]]
molecule = "Nn1c(CCCl)nc2c(Br)cc(Br)cc2c1=O"
systemundertest = "NCI-H23"
classname = "label 0"

